# PBM binding z-score per record follows
- Test system: PPARg DBDmut:RXRa IVT, anti-PPARg (DBD mutation: PPARg1 K132A/R137A, NR concentration 270 nM, RXRa partner concentration 90 nM)
- method_description: PBM binding z-score (relative to random genomic background probes); higher = stronger binding; sequences stand for … in GC…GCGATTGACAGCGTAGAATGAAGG
measured_metric: PBM binding z-score

1) TCATATAGGGAAAGGTGAAAGTCGAACGATATGA = 0.712
2) CCTGCTAGGTCAATGGCCAGCTAAAGCAGCTCGC = -1.08
3) GCGACTGGGGCATCAGCAGGTTACCATGACTTAA = -0.844
4) ACAGACAGGTGCTGAAGGTAACTCAGGCTATCAT = -0.162
5) CAGTCTAGGTCAGGGCCAGTATAGGAGGAACGTT = 0.454
6) CCTTACGGGTCACTGACACGTTATAGCATTTGGA = 1.42
7) GAACCAAGGTGAATAGGTCGTTGATGAGTAGGCG = -0.234
8) ACTCGGAGTACAAAGGTCAGAGCTACGCCAGTGA = -0.013
9) GCTAGCAGGCCATTTGGGTCACTCAGTGACGGGC = -0.601
10) CGTCCAAGGTCAATGATAGGTCAGTGAAAGCATT = 0.384
11) ACGAGTTGGTCAGCTGAGGTCACACACAATTCGG = -0.0405
12) TCTCTGAGGACACGAAGGTCAGAGCTTTCCAGAG = 0.539
13) TTACCTAGGTGAGCTGAGGTCGTTGATCCAACTC = -0.362
14) CAAACTAGGTCAAGAGGTCGAAGTCCGCTTCCCG = 1.18
15) TGAATGTGGTTATAAGATCAGGGAACGTTGCAAA = 0.967
16) CCAGATAGGTGAAAGGTAACTCAGTCTGGTACGC = 0.289
17) CCGACTGAGGCATAAGGTTACCATAAGCCAGCCC = -0.747
18) CTTACTGGGCCACGAAAGGTCATTGATTCAGTGA = 1.25
19) CCTACTGGGCCATTCCGAGGTCATTGATCATATG = 0.312
20) AGAACGAAGGCAATGAGTTGATAGCACGGGTGGC = 0.0932
21) CAAACTAGGTCATCGGAAGGTCAAAGTCCGCATG = 2.01
22) CAGCCTAGGTCAGGGTCAGTATAGGAGGAACGTT = 0.511
23) CCGACTGGTGCAAGGTTACCATAACGCACAGCCA = -0.402
24) TATATTAGTTGAAGGGCAACCGACGAGTCCGTTT = 1.48
25) TCGAGTAGGTTACCAATGGGGCATTCAACTTTCT = -0.0959
26) AGTCAAAGTTCACTAGGTAACGTAGGATTCAGCT = 0.535
